- Test system: Dd2
- assay.protocol: qHTS profiling for inhibitors of Plasmodium falciparum proliferation (AID 504749); also: nearly all actives have a fitted effect of over 60% in size
- details: P. falciparum in erythrocytes, SYBR Green DNA, 72 h; series mostly up to 28.7 µM
- Procedure: NIH National Institute of Allergy and Infectious Diseases [NIAID] NIH Chemical Genomics Center [NCGC] […] Because mature erythrocytes lack DNA, only Plasmodium-derived DNA is detected. NCGC Assay Protocol Summary: The SYBR Green viability assay was adapted from a method described previously (Plouffe et al., 2008). […] The following morning, fluorescence intensity at 485(14) nm excitation and 535(25) nm emission wavelengths was measured on an EnVision (Perkin Elmer) plate reader. […]
Results filed as inconclusive are left out. Calls of active or inactive are those of the source. Calls follow the shape of the dose curve; as a rule, active = well fitted inhibition curve with a large enough effect; inconclusive = small, poorly fitted or top-dose-only effect; inactive = flat fitted curve, though single readings scatter.
Possible outcomes: yes (active), no (inactive)

[
  {
    "line.notation": "CCCCNc1c(C(=O)OCC)c(C)nc2c1cnn2CC",
    "assigned.class": "no"
  },
  {
    "line.notation": "CCOC(=O)c1cnc2c(cnn2CC)c1NN=C(C)C",
    "assigned.class": "no"
  },
  {
    "line.notation": "CCN(CC)CCCN(c1ccccc1)C1Cc2ccccc2C1",
    "assigned.class": "yes"
  }
]
